- Tested Target: D(1A) dopamine receptor (Homo sapiens, UniProt P21728); also: assay procedure not described here
- Sequence (P21728 whole entry): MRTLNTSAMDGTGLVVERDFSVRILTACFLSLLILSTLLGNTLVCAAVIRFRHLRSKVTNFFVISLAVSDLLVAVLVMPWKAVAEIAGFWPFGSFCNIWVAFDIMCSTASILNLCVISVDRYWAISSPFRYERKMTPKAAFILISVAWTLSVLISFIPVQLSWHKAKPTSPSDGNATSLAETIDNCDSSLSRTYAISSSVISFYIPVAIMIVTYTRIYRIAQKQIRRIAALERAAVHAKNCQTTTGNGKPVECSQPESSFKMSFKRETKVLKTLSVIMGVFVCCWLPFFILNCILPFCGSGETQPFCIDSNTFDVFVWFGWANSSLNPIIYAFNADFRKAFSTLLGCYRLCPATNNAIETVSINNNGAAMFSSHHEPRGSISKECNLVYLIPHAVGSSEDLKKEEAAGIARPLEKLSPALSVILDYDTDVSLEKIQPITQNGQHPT
- Type: functional, cell-based
Metric Name: AC50

Below are worked cases with known answers.
[[record]]
molecule = "CC[N+](CC)(CCNC(=O)C(=O)NCC[N+](CC)(CC)Cc1ccccc1Cl)Cc1ccccc1Cl [AMBENONIUM]"
metric_name = "AC50"
readout_value = "> 30 µM"

[[record]]
molecule = "Cc1nnc2n1-c1ccc(Cl)cc1C(c1ccccc1)=NC2 [ALPRAZOLAM]"
metric_name = "AC50"
readout_value = "> 10 µM"

[[record]]
molecule = "CCOC(=O)O[C@]1(C(=O)COC(=O)CC)CC[C@H]2[C@@H]3CCC4=CC(=O)C=C[C@]4(C)[C@H]3[C@@H](O)C[C@@]21C [PREDNICARBATE]"
metric_name = "AC50"
readout_value = "> 10 µM"


Form field: reported AC50 of C#CCN(C)Cc1ccccc1 [PARGYLINE]
> 30 µM

Next record, please: CC(=O)SCC(Cc1ccccc1)C(=O)NCC(=O)OCc1ccccc1 (centres undefined) [RACECADOTRIL]
> 30 µM

Also check O=C(O)COC(=O)Cc1ccccc1Nc1c(Cl)cccc1Cl [ACECLOFENAC]
> 10 µM

Now this one: CC(C)C[C@H](NC(=O)[C@H](Cc1ccccc1)NC(=O)c1cnccn1)B(O)O [BORTEZOMIB]
> 30 µM

Now this one: Cc1ccc(O)c([C@H](CCN(C(C)C)C(C)C)c2ccccc2)c1 [TOLTERODINE]
> 10 µM

CC(=O)Oc1cccc2c1C(=O)c1c(OC(C)=O)cc(C(=O)O)cc1C2=O [DIACEREIN] ?
> 30 µM
